Experiment: Compound stability in rat liver microsomes
Type: in vitro ADME
Settings: rat liver microsomes 0.5 mg protein/mL, compound 5 μM, NADPH 1.0 mM, pH 7.4, 37° C.; read-out: Rat T1/2
Description: Human or rat liver microsomes incubations were conducted in duplicate in polypropylene tubes. […] The concentrations of compounds in the incubation mixtures of human or rat liver microsomes were determined by a LC/MS/MS method. The ranges of the linearity in the concentration range were determined for each tested compounds. […]
measure_name: half-life at 5 μM (h)

* Cc1nnc(-c2c(N)ncnc2N[C@@H](C)c2nc3cccc(Cl)c3c(=O)n2C2CC2)o1 [Ex. 70] | 1.1
* CC[C@H](Nc1ncnc(N)c1-c1noc(C)n1)c1nc2cccc(-c3cnn(C)c3)c2c(=O)n1C1CC1 [Ex. 79] | 2.4
* C[C@H](Nc1ncnc(N)c1-c1nnn(C)n1)c1nc2cccc(-c3cnn(C)c3)c2c(=O)n1-c1ccccc1 [Ex. 76] | 4.81
* Cc1nc(-c2c(N)ncnc2N[C@@H](C)c2nc3cccc(-c4cnn(C)c4)c3c(=O)n2-c2ccccc2)no1 [Ex. 77] | 1.95

====

test: Pharmacokinetics after intravenous and oral administration in rats; type: in vivo; conditions: Rats; iv dosing; dose 1 mg/kg (0.5 for Ex. 1, 10, 11, 35; 0.48 for Ex. 24)
Label Satisfied when CL/F is at or above 70 mL/min/kg; anything below gets Not satisfied.

- C[C@H](Nc1ncnc(N)c1-c1nnn(C)n1)c1nc2cccc(Cl)c2c(=O)n1C1CC1 [Ex. 42]: Satisfied
- CC[C@H](Nc1ncnc(N)c1-c1ncn(C)n1)c1nc2cccc(Cl)c2c(=O)n1C1CC1 [Ex. 53]: Not satisfied
- CC(C)c1noc(-c2c(N)ncnc2N[C@@H](C)c2nc3cccc(Cl)c3c(=O)n2C2CC2)n1 [Ex. 57]: Satisfied
- C[C@H](Nc1ncnc(N)c1-c1nnn(C)n1)c1nc2cccc(-c3cnn(C)c3)c2c(=O)n1-c1ccccc1 [Ex. 76]: Not satisfied
- CC[C@H](Nc1ncnc(N)c1-c1nnc(C)o1)c1nc2cccc(Cl)c2c(=O)n1-c1ccccc1 [Ex. 1]: Not satisfied
- CC[C@@H](Nc1ncnc(N)c1-c1nc(C)no1)c1nc2cccc(Cl)c2c(=O)n1C1CC1 [Ex. 19]: Satisfied
- CC[C@H](Nc1ncnc(N)c1C1=N[C@@H](C)CO1)c1nc2cccc(Cl)c2c(=O)n1C1CC1 [Ex. 5]: Not satisfied

====

target: PI3K (p120γ) (h) (Homo sapiens, UniProt P48736)
Sequence (P48736 whole entry): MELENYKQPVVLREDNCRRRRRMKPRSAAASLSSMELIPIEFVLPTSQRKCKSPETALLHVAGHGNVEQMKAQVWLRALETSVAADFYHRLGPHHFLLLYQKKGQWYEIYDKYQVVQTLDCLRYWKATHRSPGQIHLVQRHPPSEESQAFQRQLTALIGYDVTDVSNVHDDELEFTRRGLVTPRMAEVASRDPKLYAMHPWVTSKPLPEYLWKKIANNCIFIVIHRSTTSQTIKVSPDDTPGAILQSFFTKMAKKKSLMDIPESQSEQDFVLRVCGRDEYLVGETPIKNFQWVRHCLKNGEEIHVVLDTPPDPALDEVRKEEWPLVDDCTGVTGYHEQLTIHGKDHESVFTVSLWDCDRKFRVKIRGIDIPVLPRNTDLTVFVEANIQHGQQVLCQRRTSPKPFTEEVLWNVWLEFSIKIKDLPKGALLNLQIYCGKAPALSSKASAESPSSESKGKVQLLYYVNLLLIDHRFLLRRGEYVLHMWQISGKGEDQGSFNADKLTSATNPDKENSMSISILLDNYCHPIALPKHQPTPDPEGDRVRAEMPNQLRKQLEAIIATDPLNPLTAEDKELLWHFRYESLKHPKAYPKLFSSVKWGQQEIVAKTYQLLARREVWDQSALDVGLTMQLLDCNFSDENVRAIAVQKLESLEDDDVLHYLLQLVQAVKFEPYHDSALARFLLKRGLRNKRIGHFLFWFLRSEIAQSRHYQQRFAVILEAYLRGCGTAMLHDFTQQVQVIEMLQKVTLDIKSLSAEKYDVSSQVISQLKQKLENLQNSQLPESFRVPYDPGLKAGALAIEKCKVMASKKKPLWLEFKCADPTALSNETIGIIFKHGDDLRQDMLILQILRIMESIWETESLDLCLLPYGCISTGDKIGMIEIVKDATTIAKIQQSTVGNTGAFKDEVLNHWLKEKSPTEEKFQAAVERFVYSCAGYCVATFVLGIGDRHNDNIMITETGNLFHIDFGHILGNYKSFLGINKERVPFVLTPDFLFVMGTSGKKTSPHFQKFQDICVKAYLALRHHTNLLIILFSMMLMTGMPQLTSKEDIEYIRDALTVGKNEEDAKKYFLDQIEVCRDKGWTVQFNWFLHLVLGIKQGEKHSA
pIC50: −log10 of the molar value.
measure_name: pIC50

* Cc1noc(-c2c(N)ncnc2N[C@@H](C)c2nc3cccc(-c4cnn(C)c4)c3c(=O)n2-c2ccccc2)n1 [Ex. 68] | 7.04
* Cc1nnc(-c2c(N)ncnc2N[C@@H](C)c2nc3cccc(-c4cnn(C)c4)c3c(=O)n2-c2ccccc2)o1 [Ex. 69] | 5.93

====

target: PI3K (p110α/p85α) (h) (Homo sapiens, UniProt P42336); assay: PI3K (p110α/p85α) (h) non-radioactive HTRF kinase assay; conditions: Kinase inhibition data; performed at Millipore UK Ltd
Sequence (P42336 whole entry): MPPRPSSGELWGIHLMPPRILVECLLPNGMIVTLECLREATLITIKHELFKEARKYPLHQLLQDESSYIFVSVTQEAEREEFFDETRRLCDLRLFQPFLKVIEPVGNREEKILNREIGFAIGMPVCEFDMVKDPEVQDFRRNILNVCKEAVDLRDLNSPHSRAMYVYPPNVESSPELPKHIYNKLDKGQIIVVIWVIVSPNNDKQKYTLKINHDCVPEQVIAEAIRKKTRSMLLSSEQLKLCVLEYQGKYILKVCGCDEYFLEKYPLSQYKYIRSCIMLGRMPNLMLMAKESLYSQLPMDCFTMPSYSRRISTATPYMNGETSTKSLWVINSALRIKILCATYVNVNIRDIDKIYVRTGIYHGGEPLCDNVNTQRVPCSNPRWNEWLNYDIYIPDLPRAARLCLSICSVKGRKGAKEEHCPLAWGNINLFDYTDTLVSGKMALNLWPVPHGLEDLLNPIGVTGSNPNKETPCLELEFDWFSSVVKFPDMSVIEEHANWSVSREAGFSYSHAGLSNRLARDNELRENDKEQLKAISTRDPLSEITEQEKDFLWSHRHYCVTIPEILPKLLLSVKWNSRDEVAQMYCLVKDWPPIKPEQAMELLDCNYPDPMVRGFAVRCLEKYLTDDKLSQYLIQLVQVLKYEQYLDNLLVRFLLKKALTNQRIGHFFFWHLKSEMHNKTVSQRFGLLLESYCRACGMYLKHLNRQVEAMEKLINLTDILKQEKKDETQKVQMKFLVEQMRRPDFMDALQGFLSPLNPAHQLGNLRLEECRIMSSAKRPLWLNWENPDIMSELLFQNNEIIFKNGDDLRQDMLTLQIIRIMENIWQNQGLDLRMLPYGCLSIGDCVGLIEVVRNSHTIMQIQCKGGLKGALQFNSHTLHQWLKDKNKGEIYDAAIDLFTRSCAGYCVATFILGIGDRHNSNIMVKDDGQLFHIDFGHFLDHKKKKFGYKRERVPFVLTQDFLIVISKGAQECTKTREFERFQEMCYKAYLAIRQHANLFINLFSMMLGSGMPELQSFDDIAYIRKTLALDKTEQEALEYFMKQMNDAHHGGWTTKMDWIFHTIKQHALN
Sequence (P27986 whole entry partner): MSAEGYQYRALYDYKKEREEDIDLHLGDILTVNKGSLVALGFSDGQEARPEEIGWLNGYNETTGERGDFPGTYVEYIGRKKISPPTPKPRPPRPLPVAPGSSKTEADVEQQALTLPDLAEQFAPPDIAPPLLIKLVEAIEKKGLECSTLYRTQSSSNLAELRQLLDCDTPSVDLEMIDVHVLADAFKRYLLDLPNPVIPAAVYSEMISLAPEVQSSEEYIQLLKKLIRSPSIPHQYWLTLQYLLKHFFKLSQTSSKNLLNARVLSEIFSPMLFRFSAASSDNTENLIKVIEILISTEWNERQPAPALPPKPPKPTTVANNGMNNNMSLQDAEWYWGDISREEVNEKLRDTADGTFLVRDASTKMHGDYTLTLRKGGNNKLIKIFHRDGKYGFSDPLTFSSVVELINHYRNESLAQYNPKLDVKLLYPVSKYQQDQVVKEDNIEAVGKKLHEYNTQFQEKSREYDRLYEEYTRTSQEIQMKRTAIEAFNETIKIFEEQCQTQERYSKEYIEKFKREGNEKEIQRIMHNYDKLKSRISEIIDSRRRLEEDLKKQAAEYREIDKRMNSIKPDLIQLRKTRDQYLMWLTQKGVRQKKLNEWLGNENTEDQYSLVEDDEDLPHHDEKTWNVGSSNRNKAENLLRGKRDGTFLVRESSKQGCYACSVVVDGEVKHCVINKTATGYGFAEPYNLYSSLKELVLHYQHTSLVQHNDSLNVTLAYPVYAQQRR
pIC50: −log10 of the molar value.
Reported values of pIC50 for individual entries
measure_name: pIC50

• Cc1noc(-c2c(N)ncnc2N[C@@H](C)c2nc3cccc(-c4cnn(C)c4)c3c(=O)n2C2CC2)n1 = 5.66
• CC[C@H](Nc1ncnc(N)c1-c1nc(C)no1)c1nc2cccc(-c3cnn(C)c3)c2c(=O)n1C1CC1 = 5.88
• Cc1noc(-c2c(N)ncnc2N[C@@H](C)c2nc3cccc(-c4cnn(C)c4)c3c(=O)n2-c2ccccc2)n1 = 5.85

Attribution: patent US9518046B2
